Experiment: Quantitative High-Throughput drug screen in 47 multiple myeloma cell lines against the NCATS MIPE library collection: OCIMY7_PLB cell viability assay (AID 1918987); also: nearly all actives have a fitted effect of over 65% in size
Conditions: OCI-MY7 myeloma viability, CellTiter-Glo ATP, 48 h
Text: PI: Beverly A. Mock Ph.D. Laboratory of Cancer Biology and Genetics, Center for Cancer Research, National Cancer Institute, National Institute of Health, Bethesda, Maryland […] 5; Detector; 425V; Luminescence; Viewlux PerkinElmer. […] 1. […] Briefly, the corresponding myeloma cell lines were screened in 1,536-well plates with 500 cells, 5-uL per well for inhibition of cell viability (assessed by measuring ATP levels with CellTiterGlo). […]
Inconclusive results are not listed. Active and inactive are the calls of the source. Calls follow the shape of the dose curve; as a rule, active = well fitted cell-killing curve with a large enough effect; inconclusive = small, poorly fitted or top-dose-only effect, or effect the other way; inactive = no such curve, though single readings can be large or run the other way.
Write down one outcome, taken from TRUE = active, FALSE = inactive

Worked set:
>>> cat("NC(=O)c1cnc(-c2ccc(C3(N)CCC3)cc2)c(-c2ccccc2)c1")
"TRUE"
>>> cat("CC[C@@H]1C=C(C)C[C@H](C)C[C@H](OC)[C@H]2O[C@@](O)(C(=O)C(=O)N3CCCC[C@@H]3C(=O)O[C@H](C(C)=C[C@@H]3CC[C@H](Cl)[C@H](OC)C3)[C@H](C)[C@@H](O)CC1=O)[C@H](C)C[C@H]2OC")
"TRUE"
>>> cat("COc1cccc2c1CCCC2CCCN1CCN(C2CCCCC2)CC1 (centres undefined)")
"TRUE"
>>> cat("Oc1ccc(C2=Cc3ccc(O)cc3OC2)cc1")
"TRUE"

**Q:** Assay result, entry `O=C1c2ccccc2-[n+]2ccc3c([nH]c4ccccc43)c21` — outcome?
**A:** TRUE

**Q:** Hi team, can someone confirm the assay call for `CCS(=O)(=O)N1CC(CC#N)(n2cc(-c3ncnc4[nH]ccc34)cn2)C1` ?
**A:** TRUE

**Q:** Per the records of this test, what outcome belongs to `O=c1c(O)c(-c2ccc(O)cc2)oc2cc(O)cc(O)c12` ?
**A:** TRUE

**Q:** Tell me the assay call for `C[N+](C)(C)CC(=O)O` please.
**A:** FALSE

**Q:** Assay outcome for O=C(NOCC(O)CO)c1cc(Br)c(F)c(F)c1Nc1ccc(I)cc1F (centres undefined) : what was it?
**A:** TRUE

* * *

assay: qHTS profiling of the MIPE4 collection as inhibitors of Plasmodium falciparum (HB3) proliferation (AID 743347);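 also: plate controls were DMSO vehicle wells for no effect and artemisinin wells for full effect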; settings: P. falciparum HB3 in erythrocytes, SYBR Green DNA, 72 h; at 28.5 µM (top of the series) unless noted
I'd appreciate it if you marked entries true (1) when growth, % of control is lower than 4% and false (0) when it is not.

>>> cat("COc1cc(N2CCC(N3CCN(C)CC3)CC2)ccc1Nc1ncc(Cl)c(Nc2ccccc2S(=O)(=O)C(C)C)n1")
"false (0)"
>>> cat("O=C(Nc1cccc(Br)c1)c1cccc(S(=O)(=O)N2CCCCCC2)c1")
"false (0)"
>>> cat("NS(=O)(=O)c1ccc(NC2=CC(=O)c3ccccc3C2=O)cc1")
"true (1)"
>>> cat("NC(=O)c1cccc2[nH]c(-c3ccc([C@H]4CCCN4)cc3F)nc12")
"true (1)"

Query compound follows.
**Q:** Is growth, % of control strictly under 4% for the entry `O=c1cc(-c2ccc(O)cc2)oc2cc(O)cc(O)c12` ?
**A:** true (1)

* * *

test: Quantitative High-Throughput drug screen in 47 multiple myeloma cell lines against the NCATS MIPE library collection: KHM11_PLB cell viability assay (AID 1918962); details: KHM11 myeloma cell viability, CellTiter-Glo ATP luminescence, 48 h; series mostly up to 45.8 µM; also: nearly all actives have a fitted effect of over 35% in size
Results filed as inconclusive are left out. Calls of active or inactive are those of the source. The call rests on the fitted dose curve; in most records, active means well fitted cell-killing curve with a large enough effect; inconclusive means small, poorly fitted or top-dose-only effect, or effect the other way; inactive means no such curve, though single readings can be large or run the other way.
One label from this list, please: active, inactive

>>> cat("NC(=O)c1cccc(-c2cc(Nc3ccc(OC(F)(F)F)cc3)ncn2)c1")
"active"
>>> cat("COC[C@@H](c1ccc(C(F)(F)F)cc1)N1CCN(C2(C)CCN(C(=O)c3c(C)ncnc3C)CC2)C[C@H]1C")
"inactive"
>>> cat("O=C1C(Cl)=C(NCCN2CCOCC2)C(=O)c2ncccc21")
"active"
>>> cat("CC(=Cc1ccccc1)C=C1SC(=S)N(CC(=O)O)C1=O")
"inactive"
>>> cat("CCOC(=O)C1=C(N)Oc2ccc(Br)cc2C1C(C#N)C(=O)OCC (stereo not drawn)")
"active"
>>> cat("CC(=O)OC1C(C)OC(Oc2c(-c3ccc(O)cc3)oc3cc(O)cc(O)c3c2=O)C(O)C1OC(C)=O (stereo not drawn)")
"inactive"
>>> cat("Cc1ccc(F)c(NC(=O)Nc2ccc(-c3cccc4[nH]nc(N)c34)cc2)c1")
"active"

**Q:** // outcome(item) with item = `CO[C@H]1C[C@@H]2CC[C@@H](C)[C@@](O)(O2)C(=O)C(=O)N2CCCC[C@@H]2C(=O)O[C@H]([C@H](C)C[C@@H]2CC[C@H](OCCO)[C@H](OC)C2)CC(=O)[C@H](C)C=C(C)[C@@H](O)[C@@H](OC)C(=O)[C@H](C)C[C@H](C)C=CC=CC=C1C`
**A:** inactive

* * *

tested on: MKL-2; test: qHTS assay to identify novel small-molecules to repurpose for Merkel cell carcinoma treatment (AID 1296009); conditions: MCC and control cell lines, CellTiter-Glo viability, 72 h; series mostly up to 46 µM; also: % is scaled to controls: 0 for no effect and ±100 for the full control effect; nearly all actives have a fitted effect of over 60% in size
Inconclusive results are not listed. The source made the active and inactive calls. Calls come from the whole dose curve; as a rule, active = well fitted inhibition curve with a large enough effect; inconclusive = small, poorly fitted or top-dose-only effect; inactive = flat fitted curve, though single readings scatter.
API: response.call in active, inactive

Here are 2 compounds together with their reported answers.
>>> cat("C[C@]12CC[C@@H]3c4ccc(O)cc4C[C@@H](CCCCCCCCCS(=O)CCCC(F)(F)C(F)(F)F)[C@H]3[C@H]1CC[C@H]2O (some centres not stated)")
"inactive"
>>> cat("COc1cc2c(cc1OC)CN(CCc1ccc(NC(=O)c3cc(OC)c(OC)cc3NC(=O)c3cnc4ccccc4c3)cc1)CC2")
"inactive"

**Q:** I would be grateful if you could indicate the recorded call for `COc1ccc(-c2coc3cc(O)ccc3c2=O)cc1` .
**A:** inactive

**Q:** Per the records of this test, what outcome belongs to `C[N+](C)(C)CC(=O)O` ?
**A:** inactive

**Q:** Hello, I am checking results. What call was entered for `Cc1ccc(F)c(NC(=O)Nc2ccc(-c3cccc4[nH]nc(N)c34)cc2)c1` ?
**A:** inactive

**Q:** Short answer needed: outcome of this test for `N#CC1(c2ccc(NC(=O)c3cccnc3NCc3ccncc3)cc2)CCCC1` ?
**A:** inactive

* * *

assay: Quantitative High-Throughput drug screen in 47 multiple myeloma cell lines against the NCATS MIPE library collection: KMS21BM_JCRB cell viability assay (AID 1918974); conditions: ATP luminescence, 48 h
Results filed as inconclusive are left out. Active and inactive are the calls of the source. Calls come from the whole dose curve; as a rule, active = well fitted cell-killing curve with a large enough effect; inconclusive = small, poorly fitted or top-dose-only effect, or effect the other way; inactive = no such curve, though single readings can be large or run the other way.
Write down one outcome, taken from 1 for active, 0 for inactive

>>> cat("CC1(C)CCC[C@@]2(C)[C@@H]1CC[C@@]1(C)OC(=O)C[C@H]21")
0
>>> cat("Oc1ccc(C2=Cc3ccc(O)cc3OC2)cc1")
1
>>> cat("CO[C@H]1C[C@@H]2CC[C@@H](C)[C@@](O)(O2)C(=O)C(=O)N2CCCC[C@@H]2C(=O)O[C@H]([C@H](C)C[C@@H]2CC[C@H](OP(C)(C)=O)[C@H](OC)C2)CC(=O)[C@H](C)C=C(C)[C@@H](O)[C@@H](OC)C(=O)[C@H](C)C[C@H](C)C=CC=CC=C1C")
1
>>> cat("NC(CO)(CO)CCc1ccc(Sc2cccc(OCc3ccccc3)c2)cc1Cl")
1
>>> cat("CN1CCN(CCOc2cc(OC3CCOCC3)c3c(Nc4c(Cl)ccc5c4OCO5)ncnc3c2)CC1")
1
>>> cat("CC=C(C)C(=O)O[C@H]1C(C)=C[C@]23C(=O)[C@@H](C=C(CO)[C@@H](O)[C@]12O)[C@H]1[C@@H](C[C@H]3C)C1(C)C")
1

Here is the next item to consider.
**Q:** For this compound, state the assay outcome: `Cc1[nH]c(C=C2C(=O)Nc3ccc(S(=O)(=O)Cc4c(Cl)cccc4Cl)cc32)c(C)c1C(=O)N1CCC[C@H]1CN1CCCC1`
**A:** 1

* * *

assay: Quantitative High-Throughput drug screen in 47 multiple myeloma cell lines against the NCATS MIPE library collection: ARP1_JJKsccF8 cell viability assay (AID 1918928; also: nearly all actives have a fitted effect of over 40% in size;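 as to viability: 100% = DMSO only wells and 0% = medium only wells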); details: ARP1 myeloma cells viability, CellTiter-Glo ATP, 48 h; series mostly up to 45.8 µM
Results filed as inconclusive are left out. Calls of active or inactive are those of the source. The call rests on the fitted dose curve; in most records, active means well fitted cell-killing curve with a large enough effect; inconclusive means small, poorly fitted or top-dose-only effect, or effect the other way; inactive means no such curve, though single readings can be large or run the other way.
Choose the fitting class; nothing outside active, inactive is accepted.

>>> cat("C=C1C(=O)OC2C=C(C)CCC=C(C)CCC12 (stereo not given)")
"active"
>>> cat("O=c1cc(CN2CCOCC2)occ1OCCCCCSc1ccnc2cc(C(F)(F)F)ccc12")
"active"
>>> cat("c1cc(-c2sc(-c3ccncc3)c(-c3ccncc3)c2-c2ccncc2)ccn1")
"inactive"
>>> cat("O=C(O)c1ccc(-c2c[nH]c3ncc(-c4ccccc4)cc23)cc1C1CCCC1")
"inactive"
>>> cat("Nc1ncnc2c1ncn2[C@@H]1O[C@@H](CO)[C@H](O)[C@H]1O")
"inactive"

**Q:** For `O=C1c2ccccc2-[n+]2ccc3c([nH]c4ccccc43)c21` , which call appears in the assay record?
**A:** active
